target: T1, recombinant human activated Factor VII (FVIIa) (human, UniProt P08709 61-212; P08709 213-466, ten glutamate residues of the Gla domain may be gamma-carboxylated)
T1 construct: chains tethered by a disulfide bond; also called Factor VIIa; rFVIIa
T1 sequence 1: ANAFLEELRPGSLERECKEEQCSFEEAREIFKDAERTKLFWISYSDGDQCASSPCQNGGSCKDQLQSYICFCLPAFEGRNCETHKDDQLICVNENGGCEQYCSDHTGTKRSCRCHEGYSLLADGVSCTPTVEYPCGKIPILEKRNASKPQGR
T1 sequence 2: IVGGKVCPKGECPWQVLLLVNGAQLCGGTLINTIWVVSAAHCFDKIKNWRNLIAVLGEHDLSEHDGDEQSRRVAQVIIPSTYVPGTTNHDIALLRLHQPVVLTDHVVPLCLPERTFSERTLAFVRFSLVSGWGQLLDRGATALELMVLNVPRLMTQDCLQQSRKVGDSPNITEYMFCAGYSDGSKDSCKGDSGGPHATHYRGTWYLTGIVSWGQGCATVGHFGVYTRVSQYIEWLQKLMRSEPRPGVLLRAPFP
protocol: BLI (Fortebio)
measured_property: pKd
// returns pKd (minus log10 of molar concentration), number only

[
  {
    "binder": "VH SEQ ID NO 546 / VL SEQ ID NO 382 (antibody, IgG4, V domains shown, humanized 11F2; IgG4 S228P/kappa) VH: QVQLQESGPGLVEPSQTLSLTCTVSGYSITSDSAWSWIRQPPGKKLEWIGYIQYSGSTNYNPSLKSRVTISRDTSKNQFSLKLSSVTAADTAVYYCARSVNYYGNSFAVGYWGQGTSVTVSS VL: EIVLTQSPATLSLSPGERATLSCRASQGLSDYLHWYQQKPGEAPRLLIKYASQPATGIPARFSGSGSGTDFTLTISSLEPEDFAVYYCQNGHSFPLTFGQGTKLEIK",
    "experimental_value": 8.89
  },
  {
    "binder": "VH SEQ ID NO 602 / VL SEQ ID NO 326 (antibody, IgG4, V domains shown, humanized 11F2; IgG4 S228P/kappa) VH: QVQLQESGPGLVKPSQTLSLTCTVSGGSISSDSAWSWIRQPPGKGLEWIGYIQYSGSTNYNPSLKSRVTISVDTSKNQFSLKLSSVTAADTAVYYCARSVNYYGNSFAVGYWGQGTLVTVSS VL: EIVLTQSPATLSLSPGERATLSCRASQGISDYLHWYQQKPGEAPRLLIKYTSQPATGIPARFSGSGSGTDFTLTISSLEPEDFGVYYCQNGHSFPLTFGAGTKLELK",
    "experimental_value": 8.06
  },
  {
    "binder": "VH SEQ ID NO 546 / VL SEQ ID NO 310 (antibody, IgG4, V domains shown, humanized 11F2; IgG4 S228P/kappa) VH: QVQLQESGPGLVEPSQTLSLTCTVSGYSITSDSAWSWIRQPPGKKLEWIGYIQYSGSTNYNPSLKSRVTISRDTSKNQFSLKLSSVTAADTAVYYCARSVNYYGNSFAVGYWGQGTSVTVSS VL: EIVLTQSPATLSLSPGERATLSCRASQGISDYLAWYQQKPGQAPRLLIKYASQPATGIPARFSGSGSGTDFTLTISSLEPEDFAVYYCQNGHSFPLTFGQGTKLEIK",
    "experimental_value": 8.49
  }
]

Ask: // returns reported pKd for input VH SEQ ID NO 618 / VL SEQ ID NO 422 (antibody, IgG4, V domains shown, humanized 11F2; IgG4 S228P/kappa) VH: QVQLQESGPGLVKPSQTLSLTCTVSGYSISSDSAWSWIRQFPGKGLEWIGYIQYSGSTNYNPSLKSRVTISRDTSKNQFSLKLSSVTAADTAVYYCARSVNYYGNSFAVGPWGQGTLVTVSS VL: EIVLTQSPATLSLSPGERATLSCRASQGVSDYLAWYQQKPGQAPRLLIKYASQPATGIPARFSGSGSGTDFTLTISSLEPEDFAVYYCQQGHSFPLTFGQGTKLEIK
Reply: 5.24

Ask: # repeat for VH SEQ ID NO 530 / VL SEQ ID NO 462 (antibody, IgG4, V domains shown, humanized 11F2; IgG4 S228P/kappa) VH: QVQLQESGPGLVEPSQTLSLTCTVSGYSISSDSAWSWIRQPPGKGLEWIGYIQYSGSTNYNPSLKSRVTISRDTSKNQFSLKLSSVTAADTAVYYCARSVNYYGNSFAVGYWGQGTLVTVSS VL: EIVLTQSPATLSLSPGERATLSCRASQGVSDYLHWYQQKPGQAPRLLIKYASQPATGIPARFSGSGSGTDFTLTISSLEPEDFAVYYCQNGHSFPLTFGAGTKLEIK
Reply: 9.00

Ask: Subsequent entry: VH SEQ ID NO 546 / VL SEQ ID NO 462 (antibody, IgG4, V domains shown, humanized 11F2; IgG4 S228P/kappa) VH: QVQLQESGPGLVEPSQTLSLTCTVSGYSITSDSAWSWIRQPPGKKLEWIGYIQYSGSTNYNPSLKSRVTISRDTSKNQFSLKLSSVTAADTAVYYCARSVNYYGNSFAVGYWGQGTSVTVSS VL: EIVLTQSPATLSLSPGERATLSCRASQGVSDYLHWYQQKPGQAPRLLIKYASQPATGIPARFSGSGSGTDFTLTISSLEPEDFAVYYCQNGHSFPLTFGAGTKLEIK
Reply: 8.96

Ask: Check VH SEQ ID NO 634 / VL SEQ ID NO 414 (antibody, IgG4, V domains shown, humanized 11F2; IgG4 S228P/kappa) VH: QVQLQESGPGLVKPSQTLSLTCTVSGYSISSDSAWSWIRQPPGKGLEWIGYIQYSGSTNYNPSLKSRVTISRDTSKNQFSLKLSSVTAADTAVYYCARSVNYYGNSFAVGYWGQGTLVTVSS VL: EIVLTQSPATLSLSPGERATLSCRASQGVSDYLAWYQQKPGQAPRLLIKYASQPATGIPARFSGSGSGTDFTLTISSLEPEDFAVYYCQNGHSFPLTFGQGTKLEIK too.
Reply: 8.34
